Reference source: patent US20050256058A1

- TESTED_ON: T1, Caspase-10 (UniProt Q92851 220-521, limits assumed)
- T1 sequence (looked up): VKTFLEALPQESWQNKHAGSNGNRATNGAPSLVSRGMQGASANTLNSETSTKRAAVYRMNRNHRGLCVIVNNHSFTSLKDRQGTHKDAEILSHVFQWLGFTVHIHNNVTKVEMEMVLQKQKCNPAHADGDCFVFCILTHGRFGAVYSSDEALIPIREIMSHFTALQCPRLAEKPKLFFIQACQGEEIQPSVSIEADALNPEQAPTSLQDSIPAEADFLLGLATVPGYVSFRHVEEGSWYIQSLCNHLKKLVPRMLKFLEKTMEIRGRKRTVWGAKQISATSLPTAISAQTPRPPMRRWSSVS
- ASSAY_SUMMARY: cell-based or functional assay
Numbered stars: 1 amine (or outer) side, 2 acyl side, 3 side chain; on linkers, the order of the positions; unused ones are H or OH. Square brackets hold non-standard residues; d marks the D form. * marks the point of attachment. CH═CH‑CON(CH3)CH2CH2Ph = CN(CCc1ccccc1)C(=O)/C=C/*; AAsp = aza-Asp, O=C(N(CC(=O)[*:3])N[*:1])[*:2]; Cbz = O=C(OCc1ccccc1)*
I would appreciate it if you labelled entries y when k2 is 9000 M⁻¹ s⁻¹ or higher, otherwise n.

- BINDER: "Cbz-DEV[AAsp]-{CH═CH‑CON(CH2-1-Napth)2} [Cbz-Asp-Glu-Val-AAsp-CH═CH-CON(CH2-1-Napth)2]"
  CLASSIFICATION: "y"
- BINDER: "Cbz-LET[AAsp]-{CH═CH‑CON(CH3)CH2CH2Ph} (SMILES CC(C)C[C@H](NC(=O)OCc1ccccc1)C(=O)N[C@@H](CCC(=O)O)C(=O)N[C@H](C(=O)NN(CC(=O)O)C(=O)/C=C/C(=O)N(C)CCc1ccccc1)[C@@H](C)O) [Cbz-Leu-Glu-Thr-AAsp-CH═CH-CON(CH3)CH2CH2Ph]"
  CLASSIFICATION: "n"
- BINDER: "Cbz-DEV[AAsp]-{CH═CH‑CON(CH3)CH2CH2Ph} (SMILES CC(C)[C@H](NC(=O)[C@H](CCC(=O)O)NC(=O)[C@H](CC(=O)O)NC(=O)OCc1ccccc1)C(=O)NN(CC(=O)O)C(=O)/C=C/C(=O)N(C)CCc1ccccc1) [Cbz-Asp-Glu-Val-AAsp-CH═CH-CON(CH3)CH2CH2Ph]"
  CLASSIFICATION: "y"

Say whether Cbz-LET[AAsp]-{CH═CH‑CONHCH2CH2Ph} [Cbz-Leu-Glu-Thr-AAsp-CH═CH-CONHCH2CH2Ph] shows k2 of 9000 M⁻¹ s⁻¹ or more.
y

Check if k2 >= 9000 M⁻¹ s⁻¹ (inclusive). Item: Cbz-DEV[AAsp]-{CH═CH‑CO‑tetrahydroquinoline} [Cbz-Asp-Glu-Val-AAsp-CH═CH-CON-tetrahydroquinoline]
n

Hello, I need to know if Cbz-LET[AAsp]-{CH═CH‑CONHPh} [Cbz-Leu-Glu-Thr-AAsp-CH═CH-CONHPh] has measured k2 not below 9000 M⁻¹ s⁻¹. Thanks!
n
